# Tested on: GH3-TRE-Luc cell line
# conditions: read-out: AC50 (uM) modified / 1000; Tox21_110001=Tox21_113171; viability, 1 nM T3 present, 24 h
metric: CC50 (µM)

- CCN1/C(=C/C=C/C=C/c2sc3ccccc3[n+]2CC)Sc2ccccc21 [Dithiazanine chloride]: 7.02

###

# assay.method.text: in vitro
# conditions: rat, gh3-tre-luc cells, AC50 (uM) modified / 1000, Tox21_110001=Tox21_400021; viability, 1 nM T3 present, 24 h
metric: CC50 at 24 h

- Nc1c(Cl)c(Cl)c(Cl)c(Cl)c1Cl [Pentachloroaniline]: > 90 µM

###

# assay.method.text: in vitro
# conditions: rat, gh3-tre-luc cells, AC50 (uM) modified / 1000, Tox21_110001=Tox21_202941; viability, 1 nM T3 present, 24 h
metric: CC50 at 24 h

* O=C(CBr)c1ccccc1 [2-Bromoacetophenone] | > 90 µM

###

# assay.method.text: in vitro
# conditions: rat, gh3-tre-luc cells, AC50 (uM) modified / 1000
metric: CC50 at 24 h

* CCCCCCCCCCCCCCCC(=O)OC[C@H](O)[C@H]1OC(=O)C(O)=C1O [Ascorbyl palmitate] | > 50 µM
* Cc1occc1SSc1ccoc1C [Bis(2-methyl-3-furyl)disulfide] | > 90 µM
* CCOC(=O)N(C)N=O | > 90 µM
* ClC1=C(Cl)C1(Cl)Cl | > 90 µM
* CC(C)(C)C(=O)C(Oc1ccc(Cl)cc1)n1ccnc1 (stereo not shown) | > 50 µM
* COc1cc2c(N3CCN(C(=O)Nc4ccc(OC(C)C)cc4)CC3)ncnc2cc1OCCCN1CCCCC1 | 11.4 µM
* Cc1cc(=O)[nH]c(=S)[nH]1 | > 90 µM
* CCCCCCCCCC[N+](C)(C)[O-] [N,N-Dimethyldecylamine oxide] | > 90 µM
* CC1=CC(=O)CC(C)(C)C1 | > 90 µM
* CC(=O)O[C@H]1C(=O)[C@@]2(C)[C@H]([C@H](OC(=O)c3ccccc3)[C@]3(O)C[C@H](OC(=O)[C@H](O)[C@@H](NC(=O)c4ccccc4)c4ccccc4)C(C)=C1C3(C)C)[C@]1(OC(C)=O)CO[C@@H]1C[C@@H]2O | 0.25 µM
* C=C(C)C(=O)OCC(C)(C)COC(=O)C(=C)C | > 90 µM
* CCc1cccc(CC)c1N(COC)C(=O)CCl | > 90 µM
* Cn1cnc2c(F)c(Nc3ccc(Br)cc3Cl)c(C(=O)NOCCO)cc21 | > 50 µM
* CC(C)CCCC(C)(C)O | > 90 µM
* O=c1[nH]c(=O)n([C@H]2C[C@H](O)[C@@H](CO)O2)cc1C(F)(F)F | > 50 µM
* CC1CCC(C(C)(C)S)C(=O)C1 (stereo not shown) | > 90 µM
* CCC/C=C/CO [(E)-2-Hexen-1-ol] | > 90 µM
* O=CCc1ccccc1 | > 90 µM
* CC[C@@H](NC(C)C)[C@@H](O)c1ccc(O)c2[nH]c(=O)ccc12 | > 50 µM
* COC(=O)CS [Methyl thioglycolate] | > 90 µM
* CC1=CC(C)C(C=O)C(C)C1 (stereo not shown) | > 90 µM
* NC(=O)c1cc[n+](CC2=C(C(=O)[O-])N3C(=O)[C@@H](NC(=O)Cc4cccs4)[C@H]3SC2)cc1 | > 20 µM
* O=P(O)(O)OC(Cn1cncn1)(Cn1cncn1)c1ccc(F)cc1F | > 50 µM
* C[C@]12CCC(=O)C=C1CC[C@@H]1[C@@H]2[C@@H](O)C[C@@]2(C)[C@H]1CC[C@]2(O)C(=O)COC(=O)CCC(=O)O | > 50 µM
* CC(=O)N(CC(O)CO)c1c(I)c(C(=O)NCCO)c(I)c(C(=O)NCC(O)CO)c1I (stereo not shown) | > 50 µM
* O=C1c2c(O)cccc2C([C@@H]2O[C@H](CO)[C@@H](O)[C@H](O)[C@H]2O)c2cc(CO)cc(O)c21 (stereo partly shown) | > 50 µM
* O=C(N/N=C/c1ccccc1O)c1ccncc1 | > 50 µM
* COc1ccccc1NC(=O)CC(C)=O [N-(2-Methoxyphenyl)-3-oxobutanamide] | > 90 µM
* CC1(C)S[C@@H]2[C@H](NC(=O)[C@H](N)c3ccc(O)cc3)C(=O)N2[C@H]1C(=O)O | > 50 µM
* C=C(C)C(=O)OCCC(F)(F)C(F)(F)C(F)(F)C(F)(F)C(F)(F)C(F)(F)F [6:2 Fluorotelomer methacrylate] | > 90 µM
* N=C(N)S(=O)O | > 90 µM
* Nc1ncnc(Nc2ccc(Cl)cc2)n1 | > 50 µM
* Cc1c(C(=O)O)c(O)cc2c1C(=O)c1c(O)c([C@@H]3O[C@H](CO)[C@@H](O)[C@H](O)[C@H]3O)c(O)c(O)c1C2=O | 55.9 µM
* CC1=CC[C@H](C(C)C)C=C1 [(R)-alpha-Phellandrene] | > 90 µM
* CNC(=O)Nc1ccc(Cl)c(Cl)c1 | > 90 µM
* CC(C)(C)C(=O)/C=C/c1ccc(Cl)cc1 | > 90 µM
* Nc1nnc(-c2ccc([N+](=O)[O-])o2)o1 | 59 µM

###

# Test system: GH3-TRE-Luc cell line
# conditions: read-out: AC50 (uM) modified / 1000; Tox21_110001=Tox21_303003; viability, 1 nM T3 present, 24 h
metric: CC50 (µM)

- Cc1ccc(O)c(C(C)(C)C)c1: 69.9

###

# assay.method.text: in vitro
# conditions: rat, gh3-tre-luc cells, AC50 (uM) modified / 1000
Structures can show the parent of a compound that is named as a salt.
// reported CC50 at 24 h per item
metric: CC50 at 24 h

• COc1cc2c(cc1OC)C(C(C(=O)N(CCc1ccc(OC)c(OC)c1OC)CCc1ccc(OC)c(OC)c1OC)c1ccccc1)=NCC2 (stereo not drawn) [Pinokalant hydrochloride] = 21.9 µM
• BrC/C=C/CBr [(E)-1,4-Dibromo-2-butene] = > 20 µM
• c1cnc2cc3c(cc2n1)[C@@H]1CNC[C@H]3C1 [Varenicline tartrate] = > 50 µM
• OCC(F)(F)F = > 100 µM
• CCOC1Oc2ccc(OS(C)(=O)=O)cc2C1(C)C (stereo not drawn) [Ethofumesate] = > 90 µM
• C=CCNC1=C2C[C@@H](C)C[C@H](OC)[C@H](O)[C@@H](C)/C=C(\C)[C@H](OC(N)=O)[C@@H](OC)/C=C\C=C(/C)C(=O)NC(=CC1=O)C2=O = > 50 µM
• Cc1ccc(C#N)cc1 = > 90 µM
• CO = > 90 µM
• c1ccc(P(c2ccccc2)c2ccccc2)cc1 = > 90 µM

###

# assay.method.text: in vitro
# conditions: rat, gh3-tre-luc cells, AC50 (uM) modified / 1000, Tox21_110001=Tox21_201592; viability, 1 nM T3 present, 24 h
metric: CC50 at 24 h (µM)

• O=C1C2(Cl)C3(Cl)C4(Cl)C(Cl)(Cl)C5(Cl)C3(Cl)C1(Cl)C5(Cl)C24Cl (stereo not shown) = 11.6

###

# System: GH3-TRE-Luc cell line
# conditions: read-out: AC50 (uM) modified / 1000; Tox21_110001=Tox21_302170; viability, 1 nM T3 present, 24 h
metric: CC50

* Nc1ccc(-c2ccc(N)c(N)c2)cc1N | 93.2 µM

###

# assay.method.text: in vitro
# conditions: rat, gh3-tre-luc cells, AC50 (uM) modified / 1000, Tox21_110001=Tox21_111336; viability, 1 nM T3 present, 24 h
metric: CC50 at 24 h

• CC(=O)Nc1cc([As](=O)(O)O)ccc1O [Acetarsol] = > 50 µM

###

# assay.method.text: in vitro
# conditions: rat, gh3-tre-luc cells, AC50 (uM) modified / 1000, Tox21_110001=Tox21_200907; viability, 1 nM T3 present, 24 h
metric: CC50 at 24 h

• COC1=CC(=O)O[C@@H](/C=C/c2ccccc2)C1 = > 90 µM

###

# assay.method.text: in vitro
# conditions: rat, gh3-tre-luc cells, AC50 (uM) modified / 1000, Tox21_110001=Tox21_201906; viability, 1 nM T3 present, 24 h
Counter-ions that a name gives are not always drawn.
metric: CC50 at 24 h

* Nc1ccc(-c2ccc(N)c(Cl)c2)cc1Cl [3,3'-Dichlorobenzidine dihydrochloride] | 76.5 µM

###

# target.desc: TRα ligand-binding domain (Homo sapiens, UniProt P10827)
# Construct: the receptor LBDs expressed as glutathione S-transferase (GST) fusion proteins; purchased
# Sequence (P10827 163-410 isoform P10827-2 limits assumed, other chains not shown): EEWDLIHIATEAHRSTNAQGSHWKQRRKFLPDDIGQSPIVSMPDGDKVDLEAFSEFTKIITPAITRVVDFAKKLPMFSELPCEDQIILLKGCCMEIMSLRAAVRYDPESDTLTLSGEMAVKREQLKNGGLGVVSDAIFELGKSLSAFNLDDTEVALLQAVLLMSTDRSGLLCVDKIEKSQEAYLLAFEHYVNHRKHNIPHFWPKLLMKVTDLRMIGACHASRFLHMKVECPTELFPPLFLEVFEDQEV
# assay.method.text: TRa-coa LanthaScreen TR-FRET coactivator (SRC-2 peptide) recruitment, agonist (TOX21_TRA_COA_Agonist_Followup_ratio, aeid 2230)
# Type: biochemical
# conditions: read-out: EMax (% of Control) tra-coa-agonist-followup-1
Structures can show the parent of a compound that is named as a salt.
metric: Emax (%)

• C=C(NC(=O)C(=C)NC(=O)c1csc(C2=N[C@@H]3c4csc(n4)[C@H]4NC(=O)c5csc(n5)[C@H]([C@](C)(O)[C@@H](C)O)NC(=O)[C@H]5CSC(=N5)/C(=C/C)NC(=O)[C@H]([C@@H](C)O)NC(=O)c5csc(n5)[C@]3(CC2)NC(=O)[C@H](C)NC(=O)C(=C)NC(=O)[C@H](C)NC(=O)[C@H]([C@@H](C)CC)N[C@@H]2C=Cc3c([C@H](C)O)cc(nc3[C@H]2O)C(=O)O[C@@H]4C)n1)C(N)=O [Thiostrepton] = -0.6
• c1csc(-c2ccc(-c3cccs3)s2)c1 [alpha-Terthiophene] = -0.547
• NCC(=O)CCC(=O)O [Aminolevulinic acid hydrochloride] = 1.1
• N[C@@H](Cc1cc(I)c(Oc2cc(I)c(O)c(I)c2)c(I)c1)C(=O)O [Levothyroxine, reference compound] = 171
• Cc1occc(=O)c1O [Maltol] = -0.369
• C=C(c1ccc(C(=O)O)cc1)c1cc2c(cc1C)C(C)(C)CCC2(C)C [Bexarotene, reference compound] = -0.4
• CNC(=O)ON=C(CSC)C(C)(C)C [Thiofanox] = -0.2
• O=C(Cl)OCCOCCOC(=O)Cl [Diethlylene glycol bis chloroformate] = -0.217
• CC1=C(/C=C/C(C)=C\C=C\C(C)=C\C(=O)O)C(C)(C)CCC1 [9-cis Retinoic acid, reference compound] = -0.13
• COc1ccc(OC)c(C(O)C(C)N)c1 (stereo not drawn) [Methoxamine hydrochloride] = 0.282
• O=C(O)CCNC(=O)c1ccccc1 [Betamipron, reference compound] = 120
• CC(C)(C)CC(C)(C)c1ccc(O)c(Cc2ccc(Cl)cc2Cl)c1 [Clofoctol, reference compound] = 55.5
